Each recorded value in this set is attributed to PubChem BioAssay (NCI).

system: UO-31 renal; experiment: NCI tumour cell line growth inhibition, 48 h; in the data active means GI50 below about 0.43 µM; inactive means the rest
Labels: active, inactive

COMPOUND: COC(=O)c1ccc([C@H]2c3[nH]c4ccccc4c3C[C@H](C(=O)OC)N2C(=O)CCl)cc1
GROUP_LABEL: active
--
COMPOUND: Clc1ccc(CN2COc3c(ccc4cccnc34)C2)cc1Cl
GROUP_LABEL: active
--
COMPOUND: NCCOc1ncccc1/C=C1\C2C=CC=CC2C2C=CC(F)=CC12 (configuration not stated)
GROUP_LABEL: inactive
--
COMPOUND: Cc1ccc(S(=O)(=O)Oc2ccccc2-c2ccccc2)cc1
GROUP_LABEL: inactive
--
COMPOUND: O=C1N=C(c2c(-c3[nH]c(=O)c4ccc(Br)cc4c3O)c(O)c3ccccc3c2O)C(=O)c2cc(Br)ccc21
GROUP_LABEL: active
--
COMPOUND: Cc1ccnc2[nH]c(-c3cccc4ccccc34)cc(=O)c12
GROUP_LABEL: active
--
COMPOUND: C=CCCCC(=O)CCC(=O)OCC1O[C@@H](O[C@@H]2C(O)[C@@H](OC(C)=O)C(C)O[C@H]2O[C@H](CC=C)CCCCC)C(O)[C@@H](OC(=O)/C(C)=C/C)[C@@H]1OC(=O)/C=C/c1ccccc1 (some centres not stated)
GROUP_LABEL: active
--
COMPOUND: COc1ccc2nc(NC(=O)COc3cc(/C=C\c4cc(OC)c(OC)c(OC)c4)ccc3OC)sc2c1
GROUP_LABEL: inactive
--
COMPOUND: O=c1c2c3c(sc2n2c(CCl)nnc2n1Cc1ccccc1)CCCC3
GROUP_LABEL: inactive
--
COMPOUND: O=c1cc(N2CCOCC2)oc2c(-c3ccc4c(c3)OCCO4)csc12
GROUP_LABEL: active
--
COMPOUND: COc1ccc2[nH]c(C(=O)N3CCN(C(=O)OCc4ccc5c(Br)cc(Br)c(O)c5n4)CC3)cc2c1
GROUP_LABEL: active
--
COMPOUND: COc1cc2c3c(n(CCCN(C)C)c(=O)c2cc1OC)-c1cc2c(cc1C3=O)OCO2
GROUP_LABEL: inactive

###

tested on: T-47D breast; assay: NCI tumour cell line growth inhibition, 48 h
Parameter TGI: see the listing below.
MEASURED_METRIC: TGI

COMPOUND: O=C(O)c1cccc(CN2CCCCC2)c1
MEASURED_METRIC: TGI
RESULT: > 100 µM
--
COMPOUND: COc1cccc(C2SCC(=O)N2c2ccc(-c3ccc(-n4c(-c5ccccc5)nc5ccccc5c4=O)cc3)cc2)c1OC (configuration not stated)
MEASURED_METRIC: TGI
RESULT: > 100 µM
--
COMPOUND: CCC(=O)Oc1cc(/C=C/C(=O)O[C@H]2C[C@H]3CN4CCc5c([nH]c6cc(OC)ccc56)[C@@H]4C[C@@H]3[C@@H](C(=O)OC)[C@@H]2OC)ccc1OC
MEASURED_METRIC: TGI
RESULT: 41.2 µM
--
COMPOUND: CC(C)(C)c1cc(C(C)(C)C)c2c(c1O)OC(=O)CS2
MEASURED_METRIC: TGI
RESULT: 22.9 µM
--
COMPOUND: COc1ccc(C(=O)NCCNc2nccc(-c3c(-c4ccc(F)cc4)nc4sccn34)n2)cc1
MEASURED_METRIC: TGI
RESULT: 34 µM
--
COMPOUND: COC(=O)[C@@H](NC1(c2ccccc2)c2ccccc2-c2ccccc21)[C@H](OC(=O)[C@H]1CCCN1S(=O)(=O)c1ccccc1)C(=O)OC
MEASURED_METRIC: TGI
RESULT: > 100 µM
--
COMPOUND: CO/N=C(\COc1ccc2c(=O)cc(-c3ccccc3)oc2c1)c1ccc(F)cc1
MEASURED_METRIC: TGI
RESULT: > 100 µM
--
COMPOUND: CC(=O)OCCOCn1cc(C=O)c2ccccc21
MEASURED_METRIC: TGI
RESULT: > 100 µM
--
COMPOUND: COc1cc(/C=C2\CCC(C)C3=C(c4cc(OC)c(OC)c(OC)c4)C(C#N)=C(N)OC32)cc(OC)c1OC (configuration not stated)
MEASURED_METRIC: TGI
RESULT: 12.9 µM
--
COMPOUND: COc1ccccc1C1(c2c(OC(C)C)c(=O)c2=O)SCCCS1
MEASURED_METRIC: TGI
RESULT: > 100 µM
--
COMPOUND: CCOC(=O)C1C=C1C(C)(C)O (configuration not stated)
MEASURED_METRIC: TGI
RESULT: > 10 µM
--
COMPOUND: CO/C=C(/C(=O)OC)c1ccccc1Oc1c(F)c(F)c(F)c(F)c1F
MEASURED_METRIC: TGI
RESULT: 73.1 µM
--
COMPOUND: Cc1ccc2c3c4c(ccc13)C(C)(C)OC4=C(C(C)C)C2=O
MEASURED_METRIC: TGI
RESULT: > 100 µM
--
COMPOUND: CC(Cc1ccc(O)cc1)NCC(O)c1ccc(O)c(O)c1 (configuration not stated)
MEASURED_METRIC: TGI
RESULT: > 100 µM
--
COMPOUND: CN1N=C(c2ccncc2)OC1c1ccc(Cl)cc1Cl (configuration not stated)
MEASURED_METRIC: TGI
RESULT: > 100 µM
--
COMPOUND: O=C(N/N=C\c1cc(Cl)ccc1O)c1ccncc1
MEASURED_METRIC: TGI
RESULT: > 100 µM
--
COMPOUND: COc1cc2c(c(OC)c1)C(C)=NC(C)C2 (configuration not stated)
MEASURED_METRIC: TGI
RESULT: > 100 µM

###

Catalogue of TGI readings, one per entry.
system: SF-539 CNS; assay: NCI tumour cell line growth inhibition, 48 h

COMPOUND: Cc1cc(=O)[nH]c(NN2C(Cl)C(=O)C2c2ccc(O)cc2)n1 (stereo not given)
RELATION_SIGN: =
TGI (µM): 24.3

COMPOUND: C=C1CC(c2ccc(O)c(OC)c2)Oc2c(OC)cccc21 (stereo not given)
RELATION_SIGN: =
TGI (µM): 52.2

COMPOUND: CCOC(=O)C(C)(C)Oc1ccc(Cl)cc1
RELATION_SIGN: >
TGI (µM): 1000

COMPOUND: CSC1(C)CC2C(CC1N1CCOCC1)C2(C)C (stereo not given)
RELATION_SIGN: >
TGI (µM): 100

COMPOUND: CO/C=C(/C(=O)OC)c1ccccc1Oc1c(F)c(F)c(F)c(F)c1F
RELATION_SIGN: >
TGI (µM): 100

COMPOUND: COc1cc(C(=O)/C=C/c2cc(-c3cc(OC)c(OC)c(OC)c3)n[nH]2)cc(OC)c1OC
RELATION_SIGN: =
TGI (µM): 2.83

COMPOUND: CC(Cc1ccc(O)cc1)NCC(O)c1ccc(O)c(O)c1 (stereo not given)
RELATION_SIGN: >
TGI (µM): 100

COMPOUND: O=[N+]([O-])[O][Sn]([O][Sn]([O][N+](=O)[O-])([c]1ccccc1)[c]1ccccc1)([c]1ccccc1)[c]1ccccc1
RELATION_SIGN: >
TGI (µM): 100

COMPOUND: N#Cc1ccccc1C#C/C=C\C#Cc1cccs1
RELATION_SIGN: =
TGI (µM): 34.1

COMPOUND: COc1cc2c(cc1OCCCCOc1cc3nc(C)nc(Cl)c3cc1OC)N=C[C@@H]1CCCN1C2=O
RELATION_SIGN: =
TGI (µM): 4.2

COMPOUND: O=C1CCC(=O)N1CNc1cccc(NCN2C(=O)CCC2=O)c1
RELATION_SIGN: >
TGI (µM): 100

COMPOUND: CCCCCc1c(Cl)nc(Cl)nc1Cl
RELATION_SIGN: =
TGI (µM): 29.9

COMPOUND: N#Cc1c(-c2ccc(Cl)cc2)cc(-c2cc(O)ccc2O)nc1N
RELATION_SIGN: =
TGI (µM): 3.29

COMPOUND: CC1=C2[C@H]3OC(=O)[C@@H](C)[C@@H]3CC[C@@]2(C)C=CC1=O
RELATION_SIGN: >
TGI (µM): 100

COMPOUND: Clc1ccc(C2c3ccccc3-c3nc4ccccc4n32)cc1 (stereo not given)
RELATION_SIGN: >
TGI (µM): 95.4

COMPOUND: O=C(c1c(Cl)cc(Cl)cc1Cl)N(Cc1cccnc1)C(=S)N(Cc1cccnc1)C(=O)c1c(Cl)cc(Cl)cc1Cl
RELATION_SIGN: =
TGI (µM): 28.4

COMPOUND: NCc1ccc(O)c(O)c1
RELATION_SIGN: >
TGI (µM): 100

COMPOUND: COc1cccc(C2SCC(=O)N2c2ccc(-c3ccc(-n4c(-c5ccccc5)nc5ccccc5c4=O)cc3)cc2)c1OC (stereo not given)
RELATION_SIGN: >
TGI (µM): 100

COMPOUND: CCN1C(Cl)=NS(=O)(=O)c2ccccc21
RELATION_SIGN: =
TGI (µM): 35.9

COMPOUND: CCOC(=O)C(C(N)=O)c1nc2cc([N+](=O)[O-])ccc2nc1/C=C(\O)c1ccccc1 (stereo not given)
RELATION_SIGN: =
TGI (µM): 30.2

COMPOUND: CN(C)CCCNC(=S)S
RELATION_SIGN: >
TGI (µM): 100

COMPOUND: CCC(=O)Oc1cc(/C=C/C(=O)O[C@H]2C[C@H]3CN4CCc5c([nH]c6cc(OC)ccc56)[C@@H]4C[C@@H]3[C@@H](C(=O)OC)[C@@H]2OC)ccc1OC
RELATION_SIGN: =
TGI (µM): 30.9

COMPOUND: CC1=Nc2c(N)nc(N)nc2N(C)C1
RELATION_SIGN: >
TGI (µM): 100

COMPOUND: O=S1[C@H](c2ccccc2)c2c(-c3ccccc3)sc(-c3ccccc3)c2[C@@H]1c1ccccc1 (stereo not given in full)
RELATION_SIGN: >
TGI (µM): 100

COMPOUND: CC#C[C@@]1(O)CCCCC1O (stereo not given in full)
RELATION_SIGN: >
TGI (µM): 100

COMPOUND: COc1ccc2oc(=O)cc(C3c4ccc([nH]4)C(c4cc(=O)oc5ccc(OC)cc45)c4ccc([nH]4)C(c4cc(=O)oc5ccc(OC)cc45)c4ccc([nH]4)C(c4cc(=O)oc5ccc(OC)cc45)c4ccc3[nH]4)c2c1 (stereo not given)
RELATION_SIGN: =
TGI (µM): 3.91

COMPOUND: CCOC(=O)/C=C\[C@H]1OC(C)(C)O[C@H]1[C@H](O)[C@H]1COC(C)(C)O1
RELATION_SIGN: =
TGI (µM): 32.1

COMPOUND: O=C1C(C(Nc2ccccc2)c2ccccc2)=C([O-])c2ccccc21.O=C1C(C(Nc2ccccc2)c2ccccc2)=C([O-])c2ccccc21.[Co+2] (stereo not given)
RELATION_SIGN: >
TGI (µM): 100

COMPOUND: O=c1c2ccccc2sc2nc(CCl)nn12
RELATION_SIGN: >
TGI (µM): 80.4

COMPOUND: CO/C(N)=C(\C#N)N=Cc1ccccc1
RELATION_SIGN: >
TGI (µM): 100

COMPOUND: COC(=O)c1c(C(=O)OC)c2ccc(-c3ccc(Cl)cc3)nn2c1C(=O)c1ccc([N+](=O)[O-])cc1
RELATION_SIGN: >
TGI (µM): 100

COMPOUND: CSC1C=C(C(C)C)CCC1(C)SC (stereo not given)
RELATION_SIGN: =
TGI (µM): 33.6

COMPOUND: Cc1nnc2sc(Cc3cnc(N)s3)nn12
RELATION_SIGN: >
TGI (µM): 100

COMPOUND: O=C(/C=C/c1ccccc1O)C(c1ccccc1)c1ccccc1
RELATION_SIGN: >
TGI (µM): 100

COMPOUND: CO[C@@H]1[C@H](O)CC[C@]2(CO2)[C@H]1[C@@]1(C)O[C@@H]1CC=C(C)C
RELATION_SIGN: >
TGI (µM): 200

COMPOUND: C=C(C)C(=O)OC1C[C@H](COC(C)=O)C2CC=C(C)C2C2OC(=O)C(=C)[C@H]12 (stereo not given in full)
RELATION_SIGN: =
TGI (µM): 10.1

COMPOUND: C[C@H](NS(=O)(=O)c1ccc(NC(=O)c2ccccc2)cc1)C(=O)O
RELATION_SIGN: >
TGI (µM): 100

COMPOUND: CC(=O)O[C@H]1C(=O)[C@@]2(C)[C@H]([C@H](OC(=O)c3ccccc3)[C@]3(O)C[C@H](OC(=O)[C@H](O)[C@@H](NC(=O)c4ccoc4)c4ccccc4)C(C)=C1C3(C)C)[C@]1(OC(C)=O)CO[C@@H]1C[C@@H]2O
RELATION_SIGN: =
TGI (µM): 0.257

COMPOUND: COc1ccc(NC(=O)c2sc3nc(C)c(C(=O)/C=C/c4ccccc4)cc3c2N)cc1
RELATION_SIGN: =
TGI (µM): 1.84

COMPOUND: CCOC(=O)C(=O)Nc1cccc(Cl)c1C
RELATION_SIGN: >
TGI (µM): 100
